Some sequences, each annotated with its measured pull-down binding Z-score.
System: TO-N3 (biotin conjugate)
Test: pull-down binding Z-score (relative to library population); higher = stronger binding
Conditions: RNA library: Library-2

Some sequences with recorded pull-down binding Z-score:
>  <RESIDUE_SEQUENCE>
GUGCCAGCACAAAAUGCUAUAAGCAC [IAV_invivo_PB1_2_Motif_3+IAV_invivo_PB1_2_Motif_3]

>  <pull-down binding Z-score>
-1.07

$$$$
>  <RESIDUE_SEQUENCE>
GGAGUAAGUCUGAUACUUACCUG [U1snRNP5ss-1]

>  <pull-down binding Z-score>
0.599

$$$$
>  <RESIDUE_SEQUENCE>
GAGAGUGCUGUCUGAAUGCAAUGC [hsa-mir-500a]

>  <pull-down binding Z-score>
0.89

$$$$
>  <RESIDUE_SEQUENCE>
UAUAGCUACAUCAGUUAUAACUAUAUCAGUUAAA [hsa-mir-5582]

>  <pull-down binding Z-score>
1.57

$$$$

IN: State its pull-down binding Z-score on TO-N3 (biotin conjugate): CACUAAAAAGUGGAAAUACCCACAAGUUAAUG
OUT: -0.552

---

System: TO-N3-2 (biotin conjugate)
Assay: pull-down binding Z-score (relative to library population); higher = stronger binding
Details: RNA library: Library-2
Below: a set of entries, each annotated with reported pull-down binding Z-score.
Just the number, please.

>  <RESIDUE_SEQUENCE>
CCUAUACUGUUACUAGAUCAGGCAUUAGUGUCUGAUGUUGGUGAUAGUGCGG [DMSMaPseq_invitro_SARS-CoV-2_Motif_147]

>  <pull-down binding Z-score>
-0.184

$$$$
>  <RESIDUE_SEQUENCE>
CCAUUUACUUGAACCUUUAGGAGUGA [hsa-mir-489]

>  <pull-down binding Z-score>
0.625

$$$$
>  <RESIDUE_SEQUENCE>
GAGUCCUAUUUAUUUUUAGGAUAUUAGGAA [hsa-mir-5692c-2]

>  <pull-down binding Z-score>
-0.62

$$$$

IN: Reported pull-down binding Z-score for TO-N3-2 (biotin conjugate), given ACUUUCUGGUGCCAGAAUGAAAGU [hsa-mir-512-2_512-1] ?
OUT: 0.129

IN: Item: CUGCAGUGAGCGAUCGGUGCUCUGGGG [hsa-mir-503] Test system: TO-N3-2 (biotin conjugate) Read-out: pull-down binding Z-score Value: ?
OUT: 1.07

IN: Short answer please: pull-down binding Z-score, TO-N3-2 (biotin conjugate), entry AUAGCACAAAGUCUUAUGGUACUGU [hsa-mir-3169]
OUT: -0.178

---

System: TO-N3 (biotin conjugate)
Experiment: pull-down binding Z-score (relative to library population); higher = stronger binding
Conditions: RNA library: Library-2
MEASURED_QUANTITY: pull-down binding Z-score
Lab note: jot down the number only; don't add units.

Please review the entries below; each comes with its answer.
>  <RESIDUE_SEQUENCE>
GGUUUUUACCAUUAAAACC [hsa-mir-548aw]

>  <pull-down binding Z-score>
-1.01

$$$$
>  <RESIDUE_SEQUENCE>
GGAGAUGAGGCGUUGCCUCCUCC [IAV_invivo_PA_3_Motif_24+IAV_invivo_PA_3_Motif_24]

>  <pull-down binding Z-score>
-1.01

$$$$
>  <RESIDUE_SEQUENCE>
GUGCUAAGCAC

>  <pull-down binding Z-score>
-0.59

$$$$

IN: For the sequence GCUUUGUCCAAAAUGCCCUUAAUGGGAACGGGGAUCCAAAUAACAUGGACAAAGC [IAV_invivo_M1_M2_7_Motif_6+IAV_invivo_M1_M2_7_Motif_6] , what pull-down binding Z-score is on record?
OUT: -0.155

IN: Give the measured pull-down binding Z-score of UUUGCCAUUAAAAGUAAUGCGGCCAA [hsa-mir-548o-2] .
OUT: -0.0582

IN: Need pull-down binding Z-score, item GGCAUCUAGCACAGGCGGUAGAUGCU [hsa-mir-4486]
OUT: -0.481

IN: Bench note: what pull-down binding Z-score did GAUAUGCCAUUAUGUGGGUCAUGAGGUGGUGA [hsa-mir-6864] show?
OUT: 0.738

IN: Which pull-down binding Z-score reading was recorded for the sequence UUCAGCCUAAAGCAAUGAGAAGCCUCUGAAAGGCUGA [hsa-mir-1827] ?
OUT: 0.212

IN: I have this sequence here, UUUGUACGGCACUGUGGCCACGUCCAAA [hsa-mir-497] , and I need its recorded pull-down binding Z-score.
OUT: -0.0106

IN: // returns reported pull-down binding Z-score for input GGAUGUGUUGACCCCUGAAGUGGUUCUGAUGACCUUUCC [hsa-mir-6883]
OUT: 0.387

IN: Recorded pull-down binding Z-score of GGGUUGCAUCCUAAGCUGUGCUGGAGCUUCCC [hsa-mir-623] , please.
OUT: 0.877

IN: Value lookup for pull-down binding Z-score; key = UGGUGCAAUAAUUGG [hsa-mir-1302-7]
OUT: 0.4

IN: Which pull-down binding Z-score value belongs to UCCUCAGACCAGGUGGCUCCCGAGCCACCCCAGGCUGUAGG [hsa-mir-2392] ?
OUT: 0.743
